Exercise: state measured parasite growth, % of DMSO control for each of the compounds provided.
experiment: qHTS profiling of the MIPE4 collection as inhibitors of Plasmodium falciparum (3D7) proliferation (AID 743344);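 note: scaled between DMSO vehicle wells and 0.29 µM artemisinin as full inhibition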; settings: P. falciparum 3D7 in erythrocytes, SYBR Green DNA fluorescence, 72 h; at 28.5 µM
A number alone suffices; assume %.

State its parasite growth, % of DMSO control: COCC1(CO)C(=O)C2CCN1CC2 (stereo not drawn)
94.3

Fill in reported parasite growth, % of DMSO control for this entry: `CCN1CCN(C(=O)Cc2ccc(Nc3ncc(F)c(Nc4ccc(C(=O)Nc5ccccc5Cl)cc4)n3)cc2)CC1`
6.35

Quick one: give measured parasite growth, % of DMSO control for `C[C@]12CC[C@H]3[C@@H](CCC4=CC(=O)CC[C@@]43C)[C@H]1CC[C@H]2O`
78.5

State its parasite growth, % of DMSO control: `COC1=CC(C)=C[C@@H](C)[C@@H](O)[C@@H](C)CC(C)=CC=C[C@H](OC)[C@H]([C@@H](C)[C@@H](O)[C@H](C)[C@@]2(O)C[C@@H](O)[C@H](C)[C@@H](C(C)C)O2)OC1=O`
6.56

Read off the recorded parasite growth, % of DMSO control for `CSCC[C@@H](NC(=O)[C@@H](Cc1ccccc1)NC(=O)CNC(=O)CNC(=O)[C@@H](N)Cc1ccc(O)cc1)C(=O)O`
92.2

Recall and state the measured parasite growth, % of DMSO control for C=C[C@@H]1CN2CCC1C[C@H]2[C@H](O)c1ccnc2ccccc12 (stereo partly drawn) .
26.8

Provide one value: measured parasite growth, % of DMSO control of `C[C@](O)(COc1ccc(C#N)cc1)C(=O)Nc1ccc(C#N)c(C(F)(F)F)c1`
6.31

Specify measured parasite growth, % of DMSO control for `COc1ccc(N(C(=O)Oc2c(C)cccc2C)c2ccnc(Nc3ccc(N4CCN(C)CC4)cc3)n2)c(OC)c1` .
5.18

---

experiment: qHTS Assay for Identification of Small Molecule Antagonists for Thrombopoietin (TPO) Signaling Pathway (AID 918); settings: TPO-dependent cell signaling reporter, antagonist mode; note: potency is the fitted concentration of half-maximal effect; nearly all actives have a fitted effect of over 60% in size
Inconclusive results are not listed. The source made the active and inactive calls. Calls follow the shape of the dose curve; as a rule, active = well fitted inhibition curve with a large enough effect; inconclusive = small, poorly fitted or top-dose-only effect, or effect the other way, or another doubt; inactive = flat fitted curve, though single readings scatter.
MEASURE: Potency

Answer with reported Potency of `Cc1nc(-c2ccc(-c3ccc(C(=O)N4CCc5cc6c(cc54)C4(CCN(C)CC4)CO6)cc3)c(C)c2)no1`
12.6 µM (active)

Report measured Potency; entry is `CC[C@@]1(O)C(=O)OCc2c1cc1n(c2=O)Cc2cc3ccccc3nc2-1`
0.126 µM (active)

Please indicate Potency recorded for `COc1ccc2c(c[n+](C)c3c4cc5c(cc4ccc23)OCO5)c1OC`
2 µM (active)

Using known records, supply Potency for `CN[C@@H]1C[C@@H](c2ccc(Cl)c(Cl)c2)c2ccccc21`
12.6 µM (active)

For the molecule `Cc1c(C(=O)c2cccc3ccccc23)c2cccc3c2n1[C@H](CN1CCOCC1)CO3` , give its reported Potency.
12.6 µM (active)

---

experiment: qHTS for Inhibitors of the Functional Ribonucleoprotein Complex (vRNP) of Lassa (LASV) Arenavirus: LASV Primary Screen - GLuc reporter signal (AID 1347082); settings: LASV minigenome vRNP, Gaussia luciferase reporter; series mostly up to 57.5 µM; note: nearly all actives have a fitted effect of over 60% in size; note: potency is the fitted concentration of half-maximal effect
Records with an inconclusive call do not appear. Calls of active or inactive are those of the source. The call rests on the fitted dose curve; tested in HEK293 reporter line.
MEASURE: Potency

// worked examples, Potency included
compound=O=C(O)c1ccc2c(c1)nc(Nc1cccc(Cl)c1)c1ccncc12 result=inactive
compound="CN1[C@@H]2CC[C@H]1CC(OC(=O)C(O)c1ccccc1)C2 (some centres undefined)" result=inactive
compound="CC(N[C@H]1C[C@H]1c1ccccc1)c1ccc2c(c1)OCCO2 (some centres undefined)" result=inactive
compound="C[C@]12CCC3C(CC[C@H]4C[C@H](O)CC[C@]34C)C1CC[C@@H]2C(=O)CO (some centres undefined)" result=inactive
compound="CO[C@H]1CCC(O[C@H]2C[C@H]([C@]3(C)CC[C@]4(C[C@H](O)[C@@H](C)[C@@H]([C@@H](C)C=C(C)C(=O)[C@H](C)C[C@H](C)C(=O)O)O4)O3)O[C@]3(O[C@@H]([C@H]4O[C@@](O)(CO)[C@H](C)C[C@H]4C)C[C@H]3C)[C@H]2C)O[C@H]1C (some centres undefined)" result=inactive

Please supply the value of reported Potency for the item `O=c1cc(CN2CCOCC2)occ1OCCCCCSc1ccnc2cc(C(F)(F)F)ccc12`
21.7 µM (active)

Retrieve Potency measured for `CC(=O)NCCc1c[nH]c2ccccc12` and print it.
inactive

Give a short answer stating reported Potency for `CC1=C(CO)C(=O)O[C@@H]([C@@H](C)[C@H]2CC[C@H]3[C@@H]4C[C@H]5O[C@]56[C@@H](O)C=CC(=O)[C@]6(C)[C@@H]4CC[C@]23C)C1` .
0.863 µM (active)

Give the reported value of Potency for this record: `Nc1cccc(S(=O)(=O)N2CCCN(S(=O)(=O)c3ccc4c(c3)OCCO4)CC2)c1`
inactive
